- measured target: KRas G12C mutant (Homo sapiens, UniProt P01116, G12C)
- Construct: made in house
- assay procedure: Ras GTP binding domain inhibition assay (labeled-GTP competition, cell-free)
- test settings: with SOS, read-out: KRas G12C mutant + SOS: % inh.
Catalogue of inhibition at 20 µM readings, one per entry.

compound="CO[C@H]1CC[C@@H](Nc2nc(C(N)=O)nc3sc(-c4ccn(C(C)C)n4)cc23)C1 (racemic)" measured_target="KRas G12C mutant (Homo sapiens, UniProt P01116, G12C)" result=0%

Look up inhibition at 20 µM for this compound: CO[C@@H]1CC[C@H]1CNc1nc(-c2nccn2C)nc2sc(-c3ccn(C(C)C)n3)c(C)c12 (racemic) 76 to 100%

And the next one, Cc1c(-c2ccn(C(C)C)n2)sc2nc(-c3ccccn3)nc(N3CCC(COC(C)C)C3)c12 (stereo not drawn) ? 1 to 25%

And the next one, COCC1CCN(c2nc(-c3nccn3C)nc3sc(-c4ccn(C(C)C)n4)c(C)c23)C1 (racemic) ? 76 to 100%

And the next one, `CO[C@H]1C[C@@H](Nc2nc(-c3nccn3C)nc3sc(-c4cn(C)cn4)c(-c4ccccc4)c23)C1` ? 76 to 100%

And the next one, `COCCn1ccnc1-c1nc(N[C@H]2C[C@@H](OC)C2)c2c(-c3ccccc3)c(-c3ccn(C)n3)sc2n1` ? 76 to 100%

And the next one, COCC1CCN(c2nc(-c3nccn3C)nc3sc(-c4ccn(C(C)C)n4)c(-c4ccccc4)c23)C1 (racemic) ? 0%

And the next one, `COCCNC(=O)c1nc(O)c2scc(-c3ccccn3)c2n1` ? 26 to 50%

And the next one, `CO[C@H]1C[C@@H](Nc2nc(-c3nccn3C)nc3sc(-c4ccn(C(C)C)n4)c(C)c23)C1` ? 0%

* * *

Catalogue of inhibition at 20 µM readings, one per entry.
- measured target: UniProt P61586
- assay procedure: Ras GTP binding domain inhibition assay (labeled-GTP competition, cell-free)
- Set-up: made in house
- test settings: without SOS, read-out: Rho-A: % inh.

molecule="CO[C@H]1CC[C@@H](Nc2nc(-c3nccn3C)nc3sc(-c4ccn(C(C)C)n4)c(C)c23)C1 [Compound 32]" metric_name="inhibition at 20 µM" result="51 to 75%"
molecule="Oc1nc(-c2ccccn2)nc2c(-c3ncccc3F)csc12 [Compound 27]" metric_name="inhibition at 20 µM" result="76 to 100%"
molecule="CC(C)NC(=O)c1nc(O)c2scc(-c3ccccn3)c2n1 [Compound 20]" metric_name="inhibition at 20 µM" result="26 to 50%"

Look up inhibition at 20 µM for this molecule: Cc1c(-c2ccn(C(C)C)n2)sc2nc(-c3nccn3C)nc(NCCc3cn(C)cn3)c12 [Compound 58] 76 to 100%

And the next one, CO[C@H]1CC[C@@H](Nc2nc(-c3nccn3C)nc3sc(-c4cc[nH]n4)c(-c4ccccc4)c23)C1 (racemic) [Example 1] ? 1 to 25%

And the next one, Cc1c(-c2ccn(C(C)C)n2)sc2nc(-c3nccn3C)nc(NC[C@@H]3CCC(=O)N3)c12 [Compound 51] ? 76 to 100%

And the next one, COc1cc(Nc2nc(-c3nccn3C)nc3sc(-c4ccn(C(C)C)n4)c(C)c23)ccn1 [Compound 67] ? 26 to 50%

And the next one, O=C(c1nc(O)c2scc(-c3ccccn3)c2n1)N1CCOCC1 [Compound 22] ? 1 to 25%

* * *

- measured target: KRas G12D mutant (Homo sapiens, UniProt P01116, G12D)
- Construct: made in house
- assay procedure: Ras GTP binding domain inhibition assay (labeled-GTP competition, cell-free)
- test settings: without SOS, read-out: KRas G12D mutant: % inh.
metric name: inhibition at 20 µM

A selection of reference data follows.
molecule=CO[C@H]1C[C@H](CNc2nc(-c3nccn3C)nc3sc(-c4ccn(C(C)C)n4)c(C)c23)C1 result="26 to 50%"
molecule="CO[C@H]1CC[C@@H](Nc2nc(C(=O)NC(C)C)nc3sccc23)C1 (racemic)" result="1 to 25%"
molecule="CO[C@H]1CC[C@@H](Nc2nc(C(=O)N3CCCC3)nc3sccc23)C1 (racemic)" result=0%

Look up inhibition at 20 µM for this molecule: `CO[C@H]1CC[C@@H](Nc2nc(-c3nccn3C)nc3sc(-c4ccn(C(C)C)n4)c(-c4ccccc4)c23)C1` 1 to 25%

And the next one, `COCCCNc1nc(-c2nccn2C)nc2sc(-c3ccn(C(C)C)n3)c(C)c12` ? 51 to 75%

And the next one, `CO[C@@H]1CCCN(c2nc(-c3nccn3C)nc3sc(-c4ccn(C(C)C)n4)c(C)c23)C1` ? 0%

And the next one, CO[C@H]1CC[C@@H](Nc2nc(-c3nccn3C)nc3sc(-c4cc[nH]n4)c(-c4ccccc4)c23)C1 (racemic) ? 0%

And the next one, `CO[C@H]1C[C@@H](Nc2nc(-c3nccn3C)nc3sc(-c4ccn(C(C)C)n4)c(C)c23)C[C@H]1OC` ? 76 to 100%

* * *

Catalogue of inhibition at 20 µM readings, one per entry.
- measured target: Rac-1 (Homo sapiens)
- assay procedure: Ras GTP binding domain inhibition assay (labeled-GTP competition, cell-free)
- Set-up: made in house
- test settings: with SOS, read-out: Rac-1 + SOS: % inh.

A selection of reference data follows.
compound="COCC1COCCN1c1nc(-c2nccn2C)nc2sc(-c3ccn(C(C)C)n3)c(C)c12 (racemic)" result="76 to 100%"
compound="CO[C@@H]1CC[C@@H](Nc2nc(-c3nccn3C)nc3sc(-c4ccn(C(C)C)n4)c(C)c23)C1 (racemic)" result="51 to 75%"
compound=O=C(Nc1ccccn1)c1nc(O)c2scc(-c3ccccn3)c2n1 result="1 to 25%"
compound=COCCn1ccnc1-c1nc(N[C@H]2C[C@@H](OC)C2)c2c(-c3ccccc3)c(-c3ccn(C)n3)sc2n1 result="76 to 100%"
compound=CO[C@H]1CC[C@@H](Nc2nc(-c3nccn3C)nc3sc(-c4ccn(C(C)C)n4)c(C)c23)C1 result="26 to 50%"
compound=CO[C@H]1CN(c2nc(-c3nccn3C)nc3sc(-c4ccn(C(C)C)n4)c(C)c23)C[C@H]1OC result="51 to 75%"

Give the reported inhibition at 20 µM for `COc1nc(-c2nccn2C)nc2c(-c3ncccc3F)csc12` (system: Rac-1 (Homo sapiens)). 76 to 100%

* * *

- measured target: KRas wild type (Homo sapiens, UniProt P01116)
- assay procedure: Ras GTP binding domain inhibition assay (labeled-GTP competition, cell-free)
- Design: made in house
- test settings: without SOS, read-out: KRas wild type: % inh.
Catalogue of inhibition at 20 µM readings, one per entry.

compound=CO[C@H]1CC[C@@H](Nc2nc(-c3nccn3C)nc3sc(-c4ccn(C(C)C)n4)c(C)c23)C1 result="76 to 100%"
compound="CO[C@H]1CC[C@@H](Nc2nc(C(=O)N3CCCC3)nc3sccc23)C1 (racemic)" result=0%
compound=COc1ccnc(Nc2nc(-c3nccn3C)nc3sc(-c4ccn(C(C)C)n4)c(C)c23)n1 result="76 to 100%"
compound=Cc1c(-c2ccn(C(C)C)n2)sc2nc(-c3nccn3C)nc(NCc3c[nH]cn3)c12 result="26 to 50%"

Give the reported inhibition at 20 µM for `NC(=O)c1nc(O)c2scc(-c3ccccn3)c2n1` (system: KRas wild type (Homo sapiens, UniProt P01116)). 26 to 50%

And the next one, `COCCCNc1nc(-c2nccn2C)nc2sc(-c3ccn(C(C)C)n3)c(C)c12` ? 76 to 100%

And the next one, `O=C(c1nc(O)c2scc(-c3ccccn3)c2n1)N1CCCC1` ? 1 to 25%

And the next one, `CO[C@H]1C[C@@H](Nc2nc(-c3nccn3C)nc3sc(-c4ccn(C(C)C)n4)c(C)c23)C1` ? 0%

And the next one, Cc1c(-c2ccn(C(C)C)n2)sc2nc(-c3nccn3C)nc(NC3CCOC3)c12 (racemic) ? 76 to 100%

And the next one, COCCn1ccnc1-c1nc(N[C@@H]2CC[C@H](OC)C2)c2c(-c3ccccc3)c(-c3ccn(C)n3)sc2n1 (racemic) ? 76 to 100%

And the next one, COc1cccc(Nc2nc(-c3nccn3C)nc3sc(-c4ccn(C(C)C)n4)c(C)c23)n1.Cl [Compound 65, hydrochloride salt] ? 26 to 50%

And the next one, `CO[C@@H]1CC[C@H](Nc2nc(-c3nccn3C)nc3sc(-c4ccn(C(C)C)n4)c(-c4ccccc4)c23)C1` ? 51 to 75%

* * *

- measured target: KRas wild type (Homo sapiens, UniProt P01116)
- assay procedure: Ras GTP binding domain inhibition assay (labeled-GTP competition, cell-free)
- Design: made in house
- test settings: without SOS, read-out: KRas wild type: % inh.
metric name: inhibition at 20 µM

A selection of reference data follows.
molecule="CO[C@H]1CC[C@@H](Nc2nc(C(=O)N3CCOCC3)nc3sccc23)C1 (racemic)" result=0%
molecule="Cc1c(-c2ccn(C(C)C)n2)sc2nc(-c3ccccn3)nc(N3CCC(COC(C)C)C3)c12 (centres unmarked)" result="1 to 25%"
molecule=CO[C@H]1C[C@@H](Nc2nc(-c3nccn3C)nc3sc(-c4ccn(C(C)C)n4)c(C)c23)C[C@H]1OC result="51 to 75%"
molecule=COc1nc(-c2nccn2C)nc2c(-c3ncccc3F)csc12 result="76 to 100%"

Look up inhibition at 20 µM for this molecule: CO[C@H]1CC[C@@H](Nc2nc(-c3nccn3C)nc3sc(-c4cn(C)cn4)c(-c4ccccc4)c23)C1 (racemic) 51 to 75%
